# studyTarget: RNA-binding protein pos-1 (Caenorhabditis elegans)
# Sequence (G5EF15 whole entry): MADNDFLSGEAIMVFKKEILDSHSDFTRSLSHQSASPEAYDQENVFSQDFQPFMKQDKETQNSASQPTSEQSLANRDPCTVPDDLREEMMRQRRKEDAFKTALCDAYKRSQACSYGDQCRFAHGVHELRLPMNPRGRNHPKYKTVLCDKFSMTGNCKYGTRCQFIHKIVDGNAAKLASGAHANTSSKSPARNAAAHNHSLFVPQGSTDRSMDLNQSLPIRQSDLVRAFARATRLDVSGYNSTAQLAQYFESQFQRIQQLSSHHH
# methodNotes: disruptors of C. elegans POS-1 RNA interaction – biochemical, fluorescence polarization, dose response (AID 1964);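 note: purified POS-1 fused to maltose binding protein made in E. coli; potency of compounds blocking POS-1 binding to fluorescent RNA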
Calls of active or inactive are those of the source. Cut-off read from the data, not from the text of the source: actives have a measured EC50 and inactives only a lower limit.
EC50 values by entry

Solved cases (2 shown):
COc1cc(/C=C2\C(=O)NN(c3ccccc3)C2=O)cc([N+](=O)[O-])c1O    > 300 µM (not active)
CC(C)N1CCc2c(sc(NC(=O)c3ccc4ccccc4c3)c2C(N)=O)C1    > 300 µM (not active)

Proceeding to the next molecule to report its EC50.
# input # EC50 lookup, item Cc1ccc(/C=C2/Sc3ccc(C(=O)N4CCC5(CC4)OCCO5)cc3NC2=O)cc1
# output 4.37 µM (active)
